# protocol description: reduction of polyQ htt aggregates in cells – imaging, exon1htt(103Q)mCFP cells, high-content imaging, primary screen (AID 483);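 further: compound exposure lasted 3 days before fixation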
# experimental conditions: exon1htt(103Q)mCFP cell line, aggregate imaging, at 2 µM; stronger effect = higher value
inhibition of aggregation reference
The reply should contain only the number, in %.

| compound | units of measure | inhibition of aggregation |
| --- | --- | --- |
| Oc1cccc2ccc(Nc3ccccn3)nc12 | % | -24.8 |
| O=c1[nH]c2c(s1)C(c1ccco1)C1C3CCC(C3)C1S2 (centres undefined) | % | 12.3 |
| CSc1n[nH]c(NCc2ccccc2)n1 | % | 10.1 |
| COc1ccccc1C1c2c(oc3ccc(Cl)cc3c2=O)C(=O)N1c1cc(C)on1 (centres undefined) | % | 2.2 |
| Cc1sc2nc(SCC(=O)NCc3ccco3)n(CCc3ccccc3)c(=O)c2c1C | % | -11.6 |
| O=S(=O)(c1ccc(OCC(O)CN2CCc3ccccc3C2)cc1)N1CCOCC1 (centres undefined) | % | 6.1 |
| O=C(NCCCN1CCOCC1)C1CC(=O)N(CCc2ccccc2)C1 (centres undefined) | % | 0.4 |
| CC(C)(C)SCCNC(=O)COc1ccccc1 | % | 16.8 |

(Q) Please report the recorded inhibition of aggregation for CC(C)=CC/C=C1\CCC(C(=O)O)C(C(=O)O)C1 (centres undefined) .
(A) -3.8

(Q) Please report the recorded inhibition of aggregation for `Cc1n[nH]c(C)c1S(=O)(=O)Nc1ccc2c(c1)OCCO2` .
(A) 29.5

====

nuclei count reference
# protocol description: reduction of polyQ htt aggregates in cells – imaging, exon1htt(103Q)mCFP cells, high-content imaging, primary screen (AID 483);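 further: compound exposure lasted 3 days before fixation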;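 on nuclei count: percent of the per-plate median nuclei count of sample wells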
# experimental conditions: exon1htt(103Q)mCFP cell line, aggregate imaging, at 2 µM; measured here: cell count, toxicity
# do not omit the unit; it follows the number

// worked examples, nuclei count included
| compound | measured metric | measured value |
| --- | --- | --- |
| O=C(NC1CC2CCC1C2)c1ccc(CN2CCOCC2)cc1 (stereo not given) | nuclei count | 91.8% |
| Cc1ccccc1NC(=O)C1CCC(C)(C(=O)O)C1(C)C (stereo not given) | nuclei count | 94.4% |
| COc1cccc2cc(C(=O)n3ccc(C)n3)c(=O)oc12 | nuclei count | 93.5% |
| CC1=C(C#N)C(c2ccoc2)C(C(=O)OCc2ccccc2)=C(N)S1 (stereo not given) | nuclei count | 84.8% |

Moving on to the next compound.
(Q) Please report the recorded nuclei count for `Cc1cccc(-n2nnc(C(=O)NCc3ccccc3)c2N)c1` .
(A) 116%

====

# protocol description: reduction of polyQ htt aggregates in cells – imaging, exon1htt(103Q)mCFP cells, high-content imaging, primary screen (AID 483);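 further: compound exposure lasted 3 days before fixation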;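 on nuclei count: percent of the per-plate median nuclei count of sample wells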
# experimental conditions: exon1htt(103Q)mCFP cell line, aggregate imaging, at 2 µM; measured here: cell count, toxicity
nuclei count reference
The reply should contain only the number, in %.

// worked examples, nuclei count included
| compound | units of measure | nuclei count |
| --- | --- | --- |
| CCOC(=O)N1CCC(N(C(=O)Nc2ccc(Cl)c(Cl)c2)C(C)CC)CC1 (stereo not drawn) | % | 120 |
| Cc1ccccc1CS(=O)(=O)CCC(=O)N1CCN(c2ccc(N3CCOCC3)nn2)CC1 | % | 81 |
| O=c1c(-c2ccc(F)cc2)coc2c3c(ccc12)OCCO3 | % | 131 |

(Q) Please report the recorded nuclei count for `O=C(CCCCCn1c(SCc2ccncc2)nc2ccccc2c1=O)NCc1ccco1` .
(A) 109

(Q) Please report the recorded nuclei count for `Cc1nc2nc(SCC(=O)NCc3ccco3)nn2c(C)c1Cc1ccccc1` .
(A) 112

(Q) Please report the recorded nuclei count for `O=C(CSc1ncnc2sc3c(c12)CCCCC3)NCc1ccco1` .
(A) 93.9

(Q) Please report the recorded nuclei count for `COc1ccc(NC(=O)CCNC(=O)Cn2ccc3ccccc3c2=O)c(OC)c1` .
(A) 101

(Q) Please report the recorded nuclei count for `CCOC(=O)CSc1nnc(CNC(=O)c2ccc(OC)c(OC)c2)n1C` .
(A) 82

====

fluorescence slope reference
# target desc: Voltage-gated potassium channel subunit beta-2 (Rattus norvegicus)
# protocol description: inhibitors of rat Kvbeta2 reductase activity – biochemical, NADPH fluorescence, primary screen (AID 622);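 further: slope of raw intensity against log time taken from 70 to 1610 s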
# experimental conditions: recombinant KvBeta, 4-cyanobenzaldehyde reduction, at 10 µM, stronger effect = higher value
The answer should be written as a number, with no unit following it.

// worked examples, fluorescence slope included
| compound | measured metric | measured value |
| --- | --- | --- |
| COc1ccc(CN(C)CC(=O)c2c(N)n(Cc3ccccc3)c(=O)n(C)c2=O)c(OC)c1 | fluorescence slope | -0.579 |
| Cc1ccccc1CN1CCNC1=O | fluorescence slope | -0.558 |
| CS(=O)(=O)N(CC(=O)N1CCN(c2cccc(Cl)c2)CC1)C1CCCCC1 | fluorescence slope | -0.576 |
| O=c1c2ccccc2c(C=Nc2ccc(Cl)cn2)c(O)n1-c1cc(Cl)ccc1N1CCOCC1 | fluorescence slope | -0.551 |
| CSc1nc(N2CCOCC2)c2c(c1C#N)CCCCC2 | fluorescence slope | -0.579 |

(Q) Please report the recorded fluorescence slope for `COc1ccc(N2CCN(C(=O)CSc3ccccc3N)CC2)cc1` .
(A) -0.501

(Q) Please report the recorded fluorescence slope for `Cc1cc(C)n(C(=O)CNC(=O)c2cccs2)n1` .
(A) -0.404

(Q) Please report the recorded fluorescence slope for `C[C@]12C=CC(=O)C=C1CC[C@H]1[C@@H]3C[C@@H](O)[C@](O)(C(=O)CO)[C@@]3(C)C[C@H](O)[C@@]12F` .
(A) -0.508

(Q) Please report the recorded fluorescence slope for `CCN(c1ccccc1)S(=O)(=O)c1ccc(F)cc1C` .
(A) -0.58

(Q) Please report the recorded fluorescence slope for `COCCN1CN(S(=O)(=O)c2ccccc2)c2nc3ccccc3nc21` .
(A) -0.54

(Q) Please report the recorded fluorescence slope for `Cc1cc2ncn(N)c2cc1C` .
(A) -0.224

(Q) Please report the recorded fluorescence slope for `C=C(CC)C(=O)c1ccc(OCC(=O)O)c(Cl)c1Cl` .
(A) -0.476

(Q) Please report the recorded fluorescence slope for CCOc1cc(C2C(C(=O)c3ccccc3)=C(C(=O)OC)Nc3nnnn32)ccc1O (stereo not drawn) .
(A) -0.52

(Q) Please report the recorded fluorescence slope for CCn1ncc(C2=NOC(C(=O)N3CCC(C(N)=O)CC3)C2)c1C (stereo not drawn) .
(A) -0.47

(Q) Please report the recorded fluorescence slope for Cc1nc(C)c(C(=O)C2=C(O)C(=O)N(CCN3CCOCC3)C2c2cccnc2)s1 (stereo not drawn) .
(A) -0.557

(Q) Please report the recorded fluorescence slope for `Cc1n[nH]c(C)c1S(=O)(=O)Nc1ccc2c(c1)OCCO2` .
(A) -0.469

(Q) Please report the recorded fluorescence slope for `CCSc1nc(-c2ccc(OC)cc2)ccc1C#N` .
(A) -0.551

(Q) Please report the recorded fluorescence slope for `CCOC(=O)CSc1nc2cc(C(=O)NCc3ccco3)ccc2c(=O)n1-c1ccc(F)cc1` .
(A) -0.481

====

NADPH fluorescence slope reference
# target desc: Voltage-gated potassium channel subunit beta-2 (Rattus norvegicus)
# protocol description: enhancers of rat Kvbeta2 NADPH turnover – biochemical, NADPH fluorescence, primary screen (AID 623);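 further: fluorescence intensity change per second fitted from 20 to 320 s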
# experimental conditions: Recombinant KvBeta, NADPH fluorescence decrease slope, 10 min; at 10 µM; stronger effect = lower value
The answer should be written as a number, with no unit following it.

(Q) Quick check: NADPH fluorescence slope on Voltage-gated potassium channel subunit beta-2 (Rattus norvegicus), item `CCCCn1c(CN2CCN(CCO)CC2)nc2ccccc21` ?
(A) -0.000309

(Q) Quick check: NADPH fluorescence slope on Voltage-gated potassium channel subunit beta-2 (Rattus norvegicus), item `CCOc1ccc(C(=O)N(CN2CCCC2=O)c2ccc(C)cc2)cc1` ?
(A) -5.9e-05

(Q) Quick check: NADPH fluorescence slope on Voltage-gated potassium channel subunit beta-2 (Rattus norvegicus), item O=C(c1ccc(Cl)cc1)N(Cc1cccs1)C1CCS(=O)(=O)C1 (stereo unspecified) ?
(A) -9.2e-05

(Q) Quick check: NADPH fluorescence slope on Voltage-gated potassium channel subunit beta-2 (Rattus norvegicus), item `COc1ccc(S(=O)(=O)NCc2ccco2)cc1-c1nnc2c3ccccc3c(C)nn12` ?
(A) -2.6e-05

(Q) Quick check: NADPH fluorescence slope on Voltage-gated potassium channel subunit beta-2 (Rattus norvegicus), item `c1ccc2c(c1)Cn1c-2nc2ccccc21` ?
(A) -6.3e-05

(Q) Quick check: NADPH fluorescence slope on Voltage-gated potassium channel subunit beta-2 (Rattus norvegicus), item `Nc1cc(C(=O)O)ccc1Nc1ccccc1` ?
(A) -4.4e-06

====

# protocol description: endothelial E-selectin expression blockers – imaging, HUVEC, immunofluorescence, MLSMR starter and 10KST1 sets, primary screen (AID 487);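 further: 100% = median nuclei count of all wells on the same plate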
# experimental conditions: HUVEC TNFalpha-induced E-selectin immunofluorescence imaging, at 2 µM; measured here: cell number, toxicity
measured metric: nuclei count (%)
The reply should contain only the number, in %.

// worked examples, nuclei count included
| molecule | units of measure | nuclei count |
| --- | --- | --- |
| COc1cc(OC)c(C(=O)Nc2ccc(N(C)C)cc2)cc1OC | % | 116 |
| COc1ccc(CNC(=O)Cn2nc(C(F)(F)F)c3c2CCC3)cc1 | % | 116 |
| CC1(C)CC(=O)C(C=NCCO)=C(O)C1 | % | 123 |
| COC(=O)c1nc2n(n1)C(c1ccc(OC)c(OC)c1)C(C(=O)OC1CCCCC1)=C(C)N2 (centres undefined) | % | 89.6 |
| COCCOc1nc2ccccc2nc1C | % | 104 |
| Cn1c(=O)[nH]c(=O)c2c1nc(N1CCNCC1)n2Cc1cccc2ccccc12 | % | 106 |

(Q) Please report the recorded nuclei count for `Cc1ccccc1NC(=O)C1CCN(c2cnccn2)CC1` .
(A) 111

(Q) Please report the recorded nuclei count for `COc1ccccc1NC(=O)c1nnn(CC(=O)Nc2ccccc2)c1N` .
(A) 103

(Q) Please report the recorded nuclei count for CCOc1cc(C2C(C#N)=C(N)OC(C)=C2C(C)=O)cc(Br)c1O (centres undefined) .
(A) 97.7
